molecular target: ALDH1L1 (Rattus norvegicus, UniProt P28037)
Sequence (P28037 417-902 limits assumed): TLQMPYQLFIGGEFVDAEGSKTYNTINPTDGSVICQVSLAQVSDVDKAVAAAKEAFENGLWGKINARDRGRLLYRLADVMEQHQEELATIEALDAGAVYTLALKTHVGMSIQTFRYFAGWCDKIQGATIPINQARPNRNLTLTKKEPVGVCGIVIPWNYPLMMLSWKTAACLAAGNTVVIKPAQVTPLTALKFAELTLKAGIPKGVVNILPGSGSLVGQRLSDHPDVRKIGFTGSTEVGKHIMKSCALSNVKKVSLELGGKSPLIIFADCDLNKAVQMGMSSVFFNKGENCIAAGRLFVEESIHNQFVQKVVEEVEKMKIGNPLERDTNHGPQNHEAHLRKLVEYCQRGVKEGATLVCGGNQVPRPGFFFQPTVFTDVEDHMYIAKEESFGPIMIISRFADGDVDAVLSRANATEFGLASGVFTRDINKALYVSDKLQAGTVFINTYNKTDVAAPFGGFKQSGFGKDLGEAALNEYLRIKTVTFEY
pIC50: −log10 of the molar value.
READOUT TYPE: pIC50

Problem: Notebook: pull reported pIC50 for ALDH1L1 (Rattus norvegicus, UniProt P28037), entry CCN(CC)c1ccc(C=O)cc1
Result: < 4.70
